PROPERTY MEASURED: melting point

Before answering, review these 2 worked examples.
MOLECULE	melting point
Cc1c(NC(=O)c2ccc(C(C)(C)C)cc2)cccc1-c1cc(NC(=O)NCCO)c(=O)n(C)c1	220 to 221 °C
Cc1c(NC(=O)c2ccc(C(C)(C)C)cc2)cccc1-c1cc(Nc2ccc(C(=O)N3CCN(C)CC3)cn2)c(=O)n(C)n1	158 to 160 °C

Q: Entry `Cn1nc(-c2cccc(CC(=O)N3Cc4ccccc4C3)c2)cc(Nc2ccc(C(=O)N3CCOCC3)cn2)c1=O` needs its melting point filled in; supply it.
A: 179 to 180 °C

Q: Entry `Cn1nc(-c2cccc(NC(=O)c3ccc(C(C)(C)C)cc3)c2)cc(Nc2ccc(C(=O)N3CCOCC3)cn2)c1=O` needs its melting point filled in; supply it.
A: 229 to 230 °C

Q: Entry `CNC(=O)Nc1cc(-c2cccc(NC(=O)N3Cc4ccccc4C3)c2C)cn(C)c1=O` needs its melting point filled in; supply it.
A: 264 to 265 °C

Q: Entry `Cc1c(NC(=O)N2CC(OC(C)(C)C)C2)cccc1-c1cc(Nc2ccc(C(=O)N3CCOCC3)cn2)c(=O)n(C)n1` needs its melting point filled in; supply it.
A: 171 to 172 °C

###

- TARGET SYSTEM: Btk enzyme (His-tagged, full-length) (Homo sapiens, UniProt Q06187)
- Construct: 5-10 nM Btk enzyme (His-tagged, full-length); His
- Sequence (Q06187 whole entry): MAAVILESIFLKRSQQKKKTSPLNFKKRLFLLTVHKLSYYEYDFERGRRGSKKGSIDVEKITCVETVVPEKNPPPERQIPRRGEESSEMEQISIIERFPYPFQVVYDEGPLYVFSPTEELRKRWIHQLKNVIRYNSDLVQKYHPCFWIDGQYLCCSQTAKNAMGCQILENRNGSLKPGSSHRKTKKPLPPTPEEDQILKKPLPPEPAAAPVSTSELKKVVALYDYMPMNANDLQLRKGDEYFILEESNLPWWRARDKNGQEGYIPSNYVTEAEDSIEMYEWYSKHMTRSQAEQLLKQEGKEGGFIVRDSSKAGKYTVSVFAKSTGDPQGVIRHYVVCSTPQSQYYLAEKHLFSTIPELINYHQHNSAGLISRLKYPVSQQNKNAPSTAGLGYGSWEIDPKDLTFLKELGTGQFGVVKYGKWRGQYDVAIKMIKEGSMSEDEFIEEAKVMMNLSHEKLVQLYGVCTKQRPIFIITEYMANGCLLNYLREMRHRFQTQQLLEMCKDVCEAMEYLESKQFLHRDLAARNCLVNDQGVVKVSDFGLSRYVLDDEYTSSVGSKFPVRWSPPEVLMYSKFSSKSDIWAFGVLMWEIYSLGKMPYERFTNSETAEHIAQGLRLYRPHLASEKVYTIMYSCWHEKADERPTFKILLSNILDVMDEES
- METHOD SUMMARY: Bruton's Tyrosine Kinase (Btk) Inhibition Assay (33P filtration capture)
- Assay type: biochemical
- ASSAY SETUP: Bruton's tyrosine kinase Assay (Example 34); Table II pyridinones; 100 μM ATP
- Description: Bruton's Tyrosine Kinase (Btk) Inhibition Assay The assay is a capture of radioactive ^33P phosphorylated product through filtration. […] All bound, radiolabeled products are detected by scintillation counter. […] IC50 determinations are calculated from 10 data points per compound utilizing data produced from a standard 96-well plate assay template. […] Background was counted in the absence of peptide substrate. Total activity was determined in the presence of peptide substrate. […]
PROPERTY MEASURED: IC50 (nM)

Before answering, review these 8 worked examples.
COMPOUND	IC50 / nM
Cn1cc(-c2cccc(NC(=O)c3ccc(Br)cc3)c2CO)cc(Nc2ccc(C(=O)N3CCOCC3)cn2)c1=O [II-63]	31
CNC(=O)Nc1cc(-c2cccc(NC(=O)c3ccc(C(C)(C)O)cc3)c2C)cn(C)c1=O [II-28]	230
Cc1c(NC(=O)c2ccc(C(C)(C)C)cc2)cccc1-c1cc(NC(=O)NCCN(C)C)c(=O)n(C)c1 [II-16]	129
C[C@H](O)CNC(=O)Nc1cc(-c2cccc(NC(=O)c3ccc(C4CC4)cc3)c2CO)cn(C)c1=O [II-54]	68
CNC(=O)Nc1cc(-c2cccc(NC(=O)c3ccc(N4CCCCC4)nc3)c2C)cn(C)c1=O [II-19]	310
CN(C)c1ccc(C(=O)Nc2cccc(-c3cc(Nc4ccccn4)c(=O)n(C)c3)c2CO)cc1 [II-59]	20
Cc1c(NC(=O)c2ccc(C(C)(C)C)cc2)cccc1-c1cc(NC(=O)NC(C)C)c(=O)n(C)c1 [II-6]	308
CNC(=O)Nc1cc(-c2cccc(NC(=O)c3ccc(C(C)(C)C#N)cc3)c2C)cn(C)c1=O [II-42]	681

1: Cn1cc(-c2cccc(NC(=O)c3ccc(C(F)(C(F)(F)F)C(F)(F)F)cc3)c2CO)cc(Nc2ccc(C(=O)N3CCOCC3)cn2)c1=O [II-68]
2: Cn1cc(-c2cccc(NC(=O)c3ccc(C4CC4)cc3)c2CO)cc(Nc2ccc(N3CCOCC3)nn2)c1=O [II-103]
3: CNC(=O)Nc1cc(-c2cccc(CC(=O)N3CC(OC(C)(C)C)C3)c2)cn(C)c1=O [II-29]
4: Cn1cc(-c2cccc(NC(=O)c3ccc(C4CC4)cc3)c2CO)cc(Nc2ccc(C(=O)N3CC(F)(F)C3)cn2)c1=O [II-100]
5: CNC(=O)Nc1cc(-c2cccc(NC(=O)c3cc4ccccc4s3)c2C)cn(C)c1=O [II-10]
Q: Sort by IC50, descending. When ranking, write the labels in the order the request describes.
A: 3, 5, 1, 4, 2
(3: 1400 nM, 5: 131 nM, 1: 71 nM, 4: 31 nM, 2: 14 nM)

###

- TARGET SYSTEM: Btk enzyme (His-tagged, full-length) (Homo sapiens, UniProt Q06187)
- Construct: 5-10 nM Btk enzyme (His-tagged, full-length); His
- METHOD SUMMARY: Bruton's Tyrosine Kinase (Btk) Inhibition Assay (33P filtration capture)
- Assay type: biochemical
- ASSAY SETUP: Bruton's tyrosine kinase Assay (Example 34); Table I pyridazinones; 100 μM ATP
PROPERTY MEASURED: IC50 (nM)

Before answering, review these 5 worked examples.
COMPOUND	REPORTED VALUE
CC(C)OC1CN(C(=O)Cc2cccc(-c3cc(Nc4ccc(C(=O)N5CCOCC5)cn4)c(=O)n(C)n3)c2)C1 [Compound I-35]	418
Cc1c(NC(=O)c2ccc(C(C)(C)C)cc2)cccc1-c1cc(Nc2ccc(C(=O)N3CCN(C)CC3)cn2)c(=O)n(C)n1 [Compound I-2]	14
Cc1c(NC(=O)c2ccc(C(C)(C)C)cc2)cccc1-c1cc(Nc2ccnc(N3CCN(C)CC3)n2)c(=O)n(C)n1 [Compound I-11]	78
CNC(=O)Nc1cc(-c2cccc(NC(=O)c3ccc(C(C)(C)C)cc3)c2C)nn(C)c1=O [Compound I-23]	101
Cc1c(NC(=O)c2ccc(C(C)(C)C)cc2)cccc1-c1cc(Nc2ccnc(N3CCC(CO)C3)n2)c(=O)n(C)n1 (stereo not drawn) [Compound I-20]	125

a: Cc1c(NC(=O)c2ccc(C(C)(C)C)cc2)cccc1-c1cc(Nc2ccnc(N3CCC(O)C3)n2)c(=O)n(C)n1 (stereo not drawn) [Compound I-22]
b: Cc1c(NC(=O)c2ccc(N(C)C)cc2)cccc1-c1cc(Nc2ccc(C(=O)N3CCC(O)CC3)cn2)c(=O)n(C)n1 [Compound I-28]
c: Cc1c(NC(=O)c2ccc(C(C)(C)C)cc2)cccc1-c1cc(Nc2ccnc(OCCN(C)C)n2)c(=O)n(C)n1 [Compound I-18]
Q: Sort by IC50, descending. When ranking, write the labels in the order the request describes.
A: c, a, b

###

- TARGET SYSTEM: Btk enzyme (His-tagged, full-length) (Homo sapiens, UniProt Q06187)
- Construct: 5-10 nM Btk enzyme (His-tagged, full-length); His
- METHOD SUMMARY: Bruton's Tyrosine Kinase (Btk) Inhibition Assay (33P filtration capture)
- Assay type: biochemical
- ASSAY SETUP: Bruton's tyrosine kinase Assay (Example 34); Table II pyridinones; 100 μM ATP
PROPERTY MEASURED: IC50 (nM)

Before answering, review these 3 worked examples.
COMPOUND	MEASURE UNIT	IC50
CNC(=O)Nc1cc(-c2cccc(CC(=O)N3Cc4cc(Cl)c(Cl)cc4C3)c2)cn(C)c1=O [II-31]	nM	14800
CCNC(=O)Nc1cc(-c2cccc(NC(=O)c3ccc(C4CC4)cc3)c2CO)cn(C)c1=O [II-77]	nM	40
Cn1cc(-c2cccc(NC(=O)c3ccccc3)c2CO)cc(Nc2ccc(C(=O)N3CCOCC3)cn2)c1=O [II-67]	nM	770

a: Cn1cc(-c2cccc(NC(=O)c3ccc(C4CC4)cc3)c2CO)cc(Nc2ccc(=O)n(Cc3ccccc3)n2)c1=O [II-93]
b: Cn1cc(-c2cccc(NC(=O)c3ccc(C4CC4)cc3)c2CO)cc(NC(=O)NCC2CCCO2)c1=O (centres unmarked) [II-84]
c: CNC(=O)Nc1cc(-c2cccc(CC(=O)N3CC(OC(C)C)C3)c2)cn(C)c1=O [II-30]
d: CNC(=O)Nc1cc(-c2cccc(NC(=O)N3Cc4ccc(F)cc4C3)c2C)cn(C)c1=O [II-14]
Q: Give the ascending ranking of the items by reported IC50. When ranking, write the labels in the order the request describes.
A: b, a, d, c

###

- TARGET SYSTEM: Btk enzyme (His-tagged, full-length) (Homo sapiens, UniProt Q06187)
- Construct: 5-10 nM Btk enzyme (His-tagged, full-length); His
- METHOD SUMMARY: Bruton's Tyrosine Kinase (Btk) Inhibition Assay (33P filtration capture)
- Type: biochemical
- ASSAY SETUP: Bruton's tyrosine kinase Assay (Example 34); Table I pyridazinones; 100 μM ATP
PROPERTY MEASURED: IC50 (nM)

COMPOUND	REPORTED VALUE
Cc1c(NC(=O)c2ccc(C(C)(C)C)cc2)cccc1-c1cc(Nc2ccncn2)c(=O)n(C)n1	208

P: Cc1c(-c2cc(Nc3ccc(C(=O)N4CCOCC4)cn3)c(=O)n(C)n2)cccc1-n1cnc2cc(C(C)(C)C)ccc2c1=O
Q: CC(C)N1CCN(C(=O)Cc2cccc(-c3cc(Nc4ccc(C(=O)N5CCOCC5)cn4)c(=O)n(C)n3)c2)CC1
R: Cn1nc(-c2cccc(CC(=O)NCCC(O)C(C)(C)C)c2)cc(Nc2ccc(C(=O)N3CCOCC3)cn2)c1=O (stereo not shown)
Q: Give the ascending ranking of the items by reported IC50. When ranking, write the labels in the order the request describes.
A: P, R, Q
(P: 116 nM, R: 1720 nM, Q: 6250 nM)
